From: the Human Domainome abundance scans (Beltran et al. 2025)

Entries and their abundance fitness values follow.
B1: Nuclear receptor subfamily 4 group A member 2, residues 260 to 336; numbered along this chain, P43354 (parent)
chain: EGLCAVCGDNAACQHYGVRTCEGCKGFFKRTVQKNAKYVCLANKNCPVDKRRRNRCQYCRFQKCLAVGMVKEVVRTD

Variants of: B1
procedure-details: abundance fitness (aPCA) (normalised: wild type 0, dead -1); higher = more abundant; growth selection in yeast, the domain comes from the species named
measurement-context: Homo sapiens

# variant-id, abundance fitness
records = [
    ("F61Q", -0.187),
    ("G8L", 0.457),
    ("G26Q", -0.171),
    ("N43G", -0.202),
    ("C64W", -0.859),
    ("K34G", 0.05),
    ("Y16I", -0.432),
    ("A5L", 0.219),
    ("K37R", -0.099),
    ("V73E", -0.063),
    ("V73F", 0.02),
    ("K29Q", -0.097),
    ("P47E", -0.083),
    ("Q62V", -0.137),
    ("F61R", -0.989),
    ("K71M", -0.352),
    ("C46W", -1.03),
    ("Q14K", 0.256),
    ("K63D", -0.52),
    ("V32A", 0.211),
    ("G17L", -0.133),
    ("L41M", 0.039),
]
